// provenance: patent US12679822B2

# TARGET: BaF3 cell lines stably transfected with kinase EGFR Del/T790M/C797S (Homo sapiens, UniProt P00533, T790M/C797S, cells depend on it, form not given)
# Sequence (P00533 with tags, fused parts or gaps DEL746-750/T790M/C797S, form open): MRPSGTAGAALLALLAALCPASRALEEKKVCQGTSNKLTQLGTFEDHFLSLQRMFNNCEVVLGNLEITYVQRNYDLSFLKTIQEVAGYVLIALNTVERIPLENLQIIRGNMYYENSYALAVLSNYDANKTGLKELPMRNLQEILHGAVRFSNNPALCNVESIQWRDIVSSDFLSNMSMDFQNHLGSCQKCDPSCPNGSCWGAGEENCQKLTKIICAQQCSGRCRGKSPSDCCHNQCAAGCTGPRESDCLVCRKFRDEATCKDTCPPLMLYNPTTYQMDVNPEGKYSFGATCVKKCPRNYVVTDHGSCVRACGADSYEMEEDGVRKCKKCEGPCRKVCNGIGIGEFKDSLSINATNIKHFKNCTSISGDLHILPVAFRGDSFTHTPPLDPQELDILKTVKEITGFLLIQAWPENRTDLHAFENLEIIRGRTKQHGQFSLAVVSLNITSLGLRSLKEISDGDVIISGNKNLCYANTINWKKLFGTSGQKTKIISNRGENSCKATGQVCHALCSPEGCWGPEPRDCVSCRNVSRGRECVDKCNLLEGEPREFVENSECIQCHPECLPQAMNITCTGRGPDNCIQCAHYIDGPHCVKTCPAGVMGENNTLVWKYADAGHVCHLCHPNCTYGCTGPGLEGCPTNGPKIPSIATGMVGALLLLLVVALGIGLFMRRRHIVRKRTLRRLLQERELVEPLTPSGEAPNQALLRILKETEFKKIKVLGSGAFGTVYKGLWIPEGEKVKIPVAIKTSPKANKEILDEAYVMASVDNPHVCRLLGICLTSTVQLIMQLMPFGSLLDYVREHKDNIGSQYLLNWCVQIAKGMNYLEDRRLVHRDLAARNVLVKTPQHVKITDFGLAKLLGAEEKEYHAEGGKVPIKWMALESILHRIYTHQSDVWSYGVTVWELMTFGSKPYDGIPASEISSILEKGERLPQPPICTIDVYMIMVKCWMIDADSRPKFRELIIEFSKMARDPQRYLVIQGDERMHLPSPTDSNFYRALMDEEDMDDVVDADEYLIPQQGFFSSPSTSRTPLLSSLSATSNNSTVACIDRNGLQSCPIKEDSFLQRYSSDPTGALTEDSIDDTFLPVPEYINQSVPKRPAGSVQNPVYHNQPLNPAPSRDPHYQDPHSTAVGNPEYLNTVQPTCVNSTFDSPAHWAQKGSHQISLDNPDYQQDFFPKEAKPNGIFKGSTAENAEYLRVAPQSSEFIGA
# ASSAY_EXPLANATION: Growth inhibition of BaF3 cell line stably transfected with kinase EGFR Del/T790M/C797S (MTS)
# Assay type: cell-based
# CONDITION_CONTEXT: 48 h, read-out: growth inhibitory activity IC50, Del/T790M/C797S
MEASURED_ENDPOINT: GI50

Example cases with answers are listed next.
{"STRUCTURE_SMILES": "C=Cc1cnc(Nc2cc(C)n(C)n2)nc1Nc1ccc2nccnc2c1N(C)S(C)(=O)=O", "GI50": "50 to 500 nM"}
{"STRUCTURE_SMILES": "C=Cc1cnc(Nc2cc(CC3CC3)c(N3CCC(N4CCN(C)CC4)CC3)cc2OC)nc1Nc1ccc2nccnc2c1S(=O)(=O)NC", "GI50": "50 to 500 nM"}
{"STRUCTURE_SMILES": "C=Cc1cnc(Nc2cc(C3CC3)c(N3CCC(N4CCN(C)CC4)CC3)cc2OC)nc1Nc1ccc2nccnc2c1NS(C)(=O)=O", "GI50": "50 to 500 nM"}
{"STRUCTURE_SMILES": "C=Cc1cnc(Nc2cc(CC)c(N3CCC(C4CN(C)C4)CC3)cc2OC)nc1Nc1ccc2nccnc2c1N(C)S(C)(=O)=O", "GI50": "≤ 50 nM"}
{"STRUCTURE_SMILES": "C=Cc1cnc(Nc2cc(C(C)C)c(N3CCC(N4CCN(C)CC4)CC3)cc2OC)nc1Nc1ccc2nccnc2c1S(=O)(=O)C(C)C", "GI50": "500 to 2500 nM"}

Short answer for C=Cc1cnc(Nc2ccc(N3CCC(N4CCN(C)CC4)CC3)cc2OC)nc1Nc1ccc2nccnc2c1N(C)S(C)(=O)=O : GI50 was 50 to 500 nM

Briefly, GI50 measured for C=Cc1cnc(Nc2cc(C(C)C)c(N3CCC(N4CCN(C)CC4)CC3)cc2OC)nc1Nc1ccc2nccnc2c1N(C)S(C)(=O)=O : 50 to 500 nM

----------
This section presents compounds with their documented GI50 values.
# TARGET: BaF3 cell lines stably transfected with kinase EGFR Del/T790M/C797S (Homo sapiens, UniProt P00533, T790M/C797S, cells depend on it, form not given)
# ASSAY_EXPLANATION: Growth inhibition of BaF3 cell line stably transfected with kinase EGFR Del/T790M/C797S (MTS)
# Format: cell-based
# CONDITION_CONTEXT: 48 h, read-out: growth inhibitory activity IC50, Del/T790M/C797S

Consider the reported GI50 for these compounds:
{"COMPOUND": "C=Cc1cnc(Nc2cc(CC)c(N3CCC(C(C)C)C3)cc2OC)nc1Nc1ccc2nccnc2c1P(C)(C)=O (centres unmarked)", "GI50": "≤ 50 nM"}
{"COMPOUND": "C=Cc1cnc(Nc2ccn(CC)n2)nc1Nc1ccc2nccnc2c1N(C)S(C)(=O)=O", "GI50": "50 to 500 nM"}
{"COMPOUND": "C=Cc1cnc(Nc2ccc(N3CCC(N4CCN(C)CC4)CC3)cc2OC)nc1Nc1ccc2nccnc2c1S(=O)(=O)C(C)C", "GI50": "500 to 2500 nM"}
{"COMPOUND": "C=Cc1cnc(Nc2cc(F)c(N3CCC(N4CCN(C)CC4)CC3)c(F)c2)nc1Nc1ccc2nccnc2c1NS(C)(=O)=O", "GI50": "50 to 500 nM"}
{"COMPOUND": "C=Cc1cnc(Nc2ccc(N3CCC(N4CCN(C)CC4)CC3)cc2OC)nc1Nc1ccc2nccnc2c1NS(=O)(=O)C(C)C", "GI50": "500 to 2500 nM"}

So, CCc1cc(Nc2ncc(C=C(C)C)c(Nc3ccc4nccnc4c3P(C)(C)=O)n2)c(OC)cc1N1CCC(N2CCN(C)CC2)CC1 ? Its GI50 was 50 to 500 nM

Input C=Cc1cnc(Nc2cc(CC)c(NCCO)cc2OC)nc1Nc1ccc2nccnc2c1N(C)S(C)(=O)=O . Output GI50: 50 to 500 nM

----------
# TARGET: BaF3 cell lines stably transfected with kinase EGFR Del/T790M (Homo sapiens, UniProt P00533, T790M, cells depend on it, form not given)
# Sequence (P00533 with tags, fused parts or gaps DEL746-750/T790M, form open): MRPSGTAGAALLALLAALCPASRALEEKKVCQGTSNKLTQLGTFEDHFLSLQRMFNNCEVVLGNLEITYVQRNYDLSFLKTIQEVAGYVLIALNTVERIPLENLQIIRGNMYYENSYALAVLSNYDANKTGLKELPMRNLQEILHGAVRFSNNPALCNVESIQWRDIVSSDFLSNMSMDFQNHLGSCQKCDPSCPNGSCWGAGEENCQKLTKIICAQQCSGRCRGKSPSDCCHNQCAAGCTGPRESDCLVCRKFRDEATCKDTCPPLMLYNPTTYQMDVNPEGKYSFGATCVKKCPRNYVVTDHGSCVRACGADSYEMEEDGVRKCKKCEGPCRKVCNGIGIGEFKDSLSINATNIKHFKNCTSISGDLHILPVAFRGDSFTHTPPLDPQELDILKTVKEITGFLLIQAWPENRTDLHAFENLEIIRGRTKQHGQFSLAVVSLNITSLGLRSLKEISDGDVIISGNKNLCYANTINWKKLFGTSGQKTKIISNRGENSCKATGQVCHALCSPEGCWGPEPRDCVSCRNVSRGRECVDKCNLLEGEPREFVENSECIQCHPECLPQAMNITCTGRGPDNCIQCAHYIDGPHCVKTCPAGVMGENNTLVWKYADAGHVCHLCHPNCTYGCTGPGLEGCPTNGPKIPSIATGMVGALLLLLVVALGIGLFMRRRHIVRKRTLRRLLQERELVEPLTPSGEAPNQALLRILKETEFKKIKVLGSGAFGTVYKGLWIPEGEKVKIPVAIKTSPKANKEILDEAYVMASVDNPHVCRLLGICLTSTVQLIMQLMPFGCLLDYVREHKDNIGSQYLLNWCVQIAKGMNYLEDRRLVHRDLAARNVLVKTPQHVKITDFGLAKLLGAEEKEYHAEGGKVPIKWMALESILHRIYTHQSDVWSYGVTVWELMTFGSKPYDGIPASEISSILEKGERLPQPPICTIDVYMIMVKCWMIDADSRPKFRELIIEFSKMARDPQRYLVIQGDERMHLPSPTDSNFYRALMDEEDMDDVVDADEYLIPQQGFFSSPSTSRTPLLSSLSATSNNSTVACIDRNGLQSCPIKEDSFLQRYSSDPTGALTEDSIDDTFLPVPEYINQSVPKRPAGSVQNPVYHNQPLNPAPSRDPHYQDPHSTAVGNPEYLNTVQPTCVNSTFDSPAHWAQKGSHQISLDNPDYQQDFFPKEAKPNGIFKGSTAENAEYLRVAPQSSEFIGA
# ASSAY_EXPLANATION: Growth inhibition of BaF3 cell line stably transfected with kinase EGFR Del/T790M (MTS)
# Type: cell-based
# CONDITION_CONTEXT: 48 h, read-out: growth inhibitory activity IC50, Del/T790M
MEASURED_ENDPOINT: GI50

Solved entries (count: 3):
{"COMPOUND": "C=Cc1cnc(Nc2ccc(N3CCC(N4CCN(C)CC4)CC3)c(CC)c2)nc1Nc1ccc2nccnc2c1S(=O)(=O)NC [IV-9]", "GI50": "50 to 500 nM"}
{"COMPOUND": "C=Cc1cnc(Nc2cc(CC)c(N3CCC(N(C)C)C3)cc2OC)nc1Nc1ccc2nccnc2c1S(=O)(=O)NC (stereo not drawn) [IV-14]", "GI50": "50 to 500 nM"}
{"COMPOUND": "C=Cc1cnc(Nc2cc(C3CC3)c(N3CCC(N4CCN(C)CC4)CC3)cc2OC)nc1Nc1ccc2nccnc2c1S(=O)(=O)C(C)C [III-21]", "GI50": "50 to 500 nM"}

In plain terms, C=Cc1cnc(Nc2cc3c(cc2F)CCN(C)C3)nc1Nc1ccc2nccnc2c1P(C)(C)=O [Compound I-23] has a documented GI50 of 50 to 500 nM

Short answer for CCc1cc(Nc2ncc(/C=C/C3CC3)c(Nc3ccc4nccnc4c3N(C)S(C)(=O)=O)n2)c(OC)cc1N1CCC(N2CCN(C)CC2)CC1 [II-28] : GI50 was 500 to 2500 nM

Consider C=Cc1cnc(Nc2ccn(CC)n2)nc1Nc1ccc2nccnc2c1N(C)S(C)(=O)=O [II-60] . Its measured GI50 is 500 to 2500 nM

Measured GI50 of C=Cc1cnc(Nc2cc3c(cc2OC)CCN(C)C3)nc1Nc1ccc2nccnc2c1N(C)S(C)(=O)=O [II-73] : 500 to 2500 nM

GI50 measured on C=Cc1cnc(Nc2cc(CC)c(N3CCC(N4CCNCC4)CC3)cc2OC)nc1Nc1ccc2nccnc2c1N(C)S(C)(=O)=O [II-52] = 50 to 500 nM

GI50 recorded for this compound, C=Cc1cnc(Nc2cc(C)c(N3CCC(N4CCN(C)CC4)CC3)cc2OC)nc1Nc1ccc2nccnc2c1S(=O)(=O)NC [IV-2] , is 50 to 500 nM

----------
# TARGET: BaF3 cell lines stably transfected with kinase EGFR L858R/T790M (Homo sapiens, UniProt P00533, T790M/L858R, cells depend on it)
# Sequence (P00533 whole entry T790M/L858R): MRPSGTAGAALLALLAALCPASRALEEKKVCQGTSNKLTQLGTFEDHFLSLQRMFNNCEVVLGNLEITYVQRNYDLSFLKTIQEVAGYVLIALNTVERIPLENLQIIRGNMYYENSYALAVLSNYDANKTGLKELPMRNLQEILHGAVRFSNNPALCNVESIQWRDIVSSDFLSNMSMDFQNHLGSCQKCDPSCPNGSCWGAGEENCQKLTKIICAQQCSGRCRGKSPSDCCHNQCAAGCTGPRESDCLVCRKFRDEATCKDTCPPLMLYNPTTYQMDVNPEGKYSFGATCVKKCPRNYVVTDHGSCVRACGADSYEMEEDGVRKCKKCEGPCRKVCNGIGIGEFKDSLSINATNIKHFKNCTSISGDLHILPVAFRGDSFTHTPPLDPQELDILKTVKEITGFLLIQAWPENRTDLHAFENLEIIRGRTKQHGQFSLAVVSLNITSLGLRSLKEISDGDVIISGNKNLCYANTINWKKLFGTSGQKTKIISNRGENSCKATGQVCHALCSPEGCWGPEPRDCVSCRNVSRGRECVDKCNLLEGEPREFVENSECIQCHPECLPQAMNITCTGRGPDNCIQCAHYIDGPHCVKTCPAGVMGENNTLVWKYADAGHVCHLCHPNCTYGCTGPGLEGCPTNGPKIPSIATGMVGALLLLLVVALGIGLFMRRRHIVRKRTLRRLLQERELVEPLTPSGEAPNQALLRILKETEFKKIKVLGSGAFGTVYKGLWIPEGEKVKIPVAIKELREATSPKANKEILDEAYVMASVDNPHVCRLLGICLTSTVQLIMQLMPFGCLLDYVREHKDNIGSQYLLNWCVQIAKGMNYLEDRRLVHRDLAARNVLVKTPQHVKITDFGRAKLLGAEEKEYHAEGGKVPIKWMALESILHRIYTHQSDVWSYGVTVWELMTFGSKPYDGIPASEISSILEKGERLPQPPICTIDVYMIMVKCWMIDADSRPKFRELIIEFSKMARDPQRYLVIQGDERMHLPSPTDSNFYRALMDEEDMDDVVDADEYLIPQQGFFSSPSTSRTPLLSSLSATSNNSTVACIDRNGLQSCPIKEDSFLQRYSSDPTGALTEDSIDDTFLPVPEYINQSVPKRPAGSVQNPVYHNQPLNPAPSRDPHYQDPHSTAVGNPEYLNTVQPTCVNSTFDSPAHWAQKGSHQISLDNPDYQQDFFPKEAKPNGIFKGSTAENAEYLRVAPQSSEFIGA
# ASSAY_EXPLANATION: Growth inhibition of BaF3 cell line stably transfected with kinase EGFR L858R/T790M (MTS)
# Assay type: cell-based
# CONDITION_CONTEXT: 48 h, read-out: growth inhibitory activity IC50, L858R/T790M
Items are presented alongside their recorded GI50.

{"COMPOUND": "C=Cc1cnc(Nc2cc(CC)c(N3CCC(N4CCN(C)CC4)CC3)cc2OC)nc1Nc1ccc2nccnc2c1S(=O)(=O)C(C)C [III-6]", "GI50": "50 to 500 nM"}
{"COMPOUND": "C=C(C)c1cnc(Nc2cc(C(C)C)c(N3CCC(N4CCN(C)CC4)CC3)cc2OC)nc1Nc1ccc2nccnc2c1N(C)S(C)(=O)=O [II-22]", "GI50": "50 to 500 nM"}
{"COMPOUND": "C=Cc1cnc(Nc2cc(C)c(N3CCC(N4CCN(C)CC4)CC3)cc2OC)nc1Nc1ccc2nccnc2c1S(=O)(=O)NC [IV-2]", "GI50": "50 to 500 nM"}
{"COMPOUND": "C=Cc1cnc(Nc2cc(Cc3ccccc3)c(N3CCC(N4CCN(C)CC4)CC3)cc2OC)nc1Nc1ccc2nccnc2c1N(C)S(C)(=O)=O [II-19]", "GI50": "500 to 2500 nM"}
{"COMPOUND": "C=Cc1cnc(Nc2cc(CC)c(N3CCC(N4CCN(C)CC4)CC3)cc2OC)nc1Nc1ccc2nccnc2c1P(C)(C)=O [Compound I-1]", "GI50": "≤ 50 nM"}

For reference, reported GI50 for C=C(C)c1cnc(Nc2cc(CC)c(N3CCC(N4CCN(C)CC4)CC3)cc2OC)nc1Nc1ccc2nccnc2c1N(C)S(C)(=O)=O [II-21] stands at ≤ 50 nM

Record summary for C=Cc1cnc(Nc2ccc(N3CCC(N4CCN(C)CC4)CC3)cc2OC)nc1Nc1ccc2nccnc2c1NS(=O)(=O)C(C)C [II-42] : reported GI50 = 500 to 2500 nM

// sample C=Cc1cnc(Nc2cc(CC)c(N3CCN(C)CC3)cc2OC)nc1Nc1ccc2nccnc2c1N(C)S(C)(=O)=O [II-4] , its GI50 was ≤ 50 nM
